experimental_details: qHTS assay to test for compound auto fluorescence at 535 nm (green) in HepG2 cells (AID 720675); further: on the % scale 0 is the no-effect control and ±100 the full control effect
test_context: green autofluorescence 485/535 nm, 1 h; series mostly up to 91.3 µM
Activity calls are given as the source filed them. The call rests on the fitted dose curve; in most records, active means well fitted curve in the direction sought with a large enough effect in the repeat runs; inconclusive means weak or mixed curves; inactive means flat fitted curve, though single readings scatter.
parameter_measured: fluorescence, % of fluorescein control

Examples with their reported fluorescence, % of fluorescein control follow.
CC(C)=CCC[C@](C)(O)[C@@H]1CC=C(C)CC1	inactive
Cc1ccc(C)c(N)c1	inactive
CN(CCCN1c2ccccc2CCc2ccccc21)CC(=O)c1ccc(Cl)cc1	inactive
CN1[C@@H]2CC[C@H]1CC(OC(=O)c1c[nH]c3ccccc13)C2 (stereo not given in full)	inactive

Query: Can you share its fluorescence, % of fluorescein control? I mean this compound: `COC(=O)c1ccc2cc(C(=O)OC)ccc2c1`
Response: -0.0327% [at 18.6 µM] (inactive)

Query: Next compound: `C[C@]12CCC(=O)C=C1CC[C@@H]1[C@@H]2CC[C@@]2(C)[C@H]1CC[C@]2(O)C(=O)CO`
Response: inactive

Query: Next compound: `CCCCCCCCOC(=O)CCCCCCCCC(=O)OCCCCCCCC`
Response: inactive

Query: Next compound: CC(=O)N(CC(O)CN(C(C)=O)c1c(I)c(C(=O)NCC(O)CO)c(I)c(C(=O)NCC(O)CO)c1I)c1c(I)c(C(=O)NCC(O)CO)c(I)c(C(=O)NCC(O)CO)c1I (stereo not given)
Response: 0.0792% [at 18.6 µM] (inactive)

Query: Next compound: `COc1ccccc1N1CCN(CCCNc2cc(=O)n(C)c(=O)n2C)CC1`
Response: inactive

Query: Next compound: `O=C(O)CN(CCN(CC(=O)O)CC(=O)O)CCN(CC(=O)O)CC(=O)O`
Response: inactive

// provenance: PubChem BioAssay (Tox21)
